# Test system: HeLa cells
# assay: Compound screen by flow cytometry: HeLa cell count as surrogate readout of cell viability (z-scoreHeLa); also: test concentration or dose not given here
# Type: cell-based, human
# run_conditions: PKIS compound screen raw data, HeLa cell count, replicate 1
Binary classification by cell count rep 1, with 30000 as an inclusive lower bound for 1; all other cases are 0.

| molecule | category |
| --- | --- |
| NC(=O)c1cccc(Nc2nccc(Nc3ccc(Oc4cccc(Cl)c4)c(Cl)c3)n2)c1 [GW659008A] | 0 |
| Fc1cc(Cl)ccc1Nc1ccnc2cc(-c3ccc(CN4CCSCC4)o3)ccc12 [GW560106X] | 1 |
| Cc1cn2c(=O)cc(N3CCOCC3)nc2n1Cc1cccc(Cl)c1Cl [GSK2334006A] | 1 |
| CC(C)c1nc(-c2cccc(NS(=O)(=O)c3ccccc3)c2)c(-c2ccnc(Nc3ccc4c(c3)CN(C)CC4)n2)s1 [GSK1649598A] | 0 |
| Cc1ccc(NC(=O)c2ccnc(N3CCN(C)CC3)c2)cc1-c1ccc(C(=O)NCC2CC2)cc1 [GW775604X] | 0 |
| Cn1cc(-c2ccc3c(c2)CCN3C(=O)Cc2cc(F)cc(F)c2F)c2c(N)ncnc21 [GSK2634140A] | 0 |
| Cc1cc(O)cc(C)c1/C=C/c1cncc(C(N)=O)c1 [GW435821X] | 0 |
